target: PD-1/PD-L1 interaction (PD-1-Ig / PD-L1-His) (Homo sapiens (Human), UniProt Q9NZQ7); assay: PD-1/PD-L1 Homogenous Time-Resolved Fluorescence (HTRF) binding assay; conditions: PD-1/PD-L1 HTRF binding assay; value given as range class; read-out: Range or IC50
Sequence (Q9NZQ7 other isoform, or with tags, fused parts or gaps): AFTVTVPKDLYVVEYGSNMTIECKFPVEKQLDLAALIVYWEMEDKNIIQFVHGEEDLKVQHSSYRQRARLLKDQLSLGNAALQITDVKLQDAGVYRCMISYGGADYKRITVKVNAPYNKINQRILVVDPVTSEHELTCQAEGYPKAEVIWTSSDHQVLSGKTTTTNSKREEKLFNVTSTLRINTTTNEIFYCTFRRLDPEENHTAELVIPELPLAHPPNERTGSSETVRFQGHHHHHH
pIC50: −log10 of the molar value.
READOUT LABEL: pIC50

State its pIC50 on PD-1/PD-L1 interaction (PD-1-Ig / PD-L1-His) (Homo sapiens (Human), UniProt Q9NZQ7): Cc1c(COc2cc(OCc3cncc(C(=O)O)c3)c(CN[C@@](C)(CO)C(=O)O)cc2Cl)cccc1-c1ccc2c(c1)OCCO2
8.00 to 9.22
